- Tested On: T1, BsoBI D246A (UniProt P70985 P70985:1-323, D246A)
- T1 sequence: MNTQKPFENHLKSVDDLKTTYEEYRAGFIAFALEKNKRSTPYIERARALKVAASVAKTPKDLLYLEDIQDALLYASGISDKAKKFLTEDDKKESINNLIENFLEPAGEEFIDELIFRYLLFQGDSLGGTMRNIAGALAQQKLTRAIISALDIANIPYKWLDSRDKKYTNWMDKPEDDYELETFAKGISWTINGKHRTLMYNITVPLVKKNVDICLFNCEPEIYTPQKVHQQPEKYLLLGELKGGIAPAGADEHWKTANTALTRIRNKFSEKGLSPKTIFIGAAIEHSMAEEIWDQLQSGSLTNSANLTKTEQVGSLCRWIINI
- Method Description: filter; 4 mM CaCl2; ±4
- Condition Label: chain copies: 2 inferred; label: 33P 5' end
- Method: The binding condition was in 10 mM Tris-HCl, pH 7.5, 100 mM NaCl, 50 mg/ml BSA, 4 mM CaCl₂ in […] volume. The labeled DNA substrates were diluted to a final scintillation count of 1000-5000 cpm and varying amount of BsoBI or each variant was added. […] The radioactivity count from the sample without BsoBI is F₀, and the radioactivity count from sample with BsoBI or each variant is F. The apparent Kd value is calculated from F/F₀ and the BsoBI concentration [E] according to equation [1]. […]
pKd: −log10 of the molar value.

| Binder | pKd |
| --- | --- |
| S3 (CTCGGG/CCCGAG) (dsDNA) DNA 1: GAGTGTTATGGGTAGCTCGGGTGAAGTGGGAATATC DNA 2: GATATTCCCACTTCACCCGAGCTACCCATAACACTC | 10.77 |

Values from patent US20050003420
